System: NCI/ADR-RES
experiment.notes: NCI tumour cell line growth inhibition, 48 h
Calls of active or inactive are those of the source. Rule as the data show it: active = GI50 up to about 1.1 µM and inactive = higher.
Your reply should match one of these outcome classes. active, inactive

O=C(c1cccs1)N1CCN(C(=O)c2cccs2)C1=S :: inactive
Cn1c(Nc2ccccc2)c(/C=N\c2ccccc2)c(=O)n(C)c1=O :: inactive
Oc1cc(-c2cccc(OC(F)(F)F)c2)nc2cc3c(cc12)OCO3 :: active
COc1ccc(-c2nc(SC)n(C3OC(COC(C)=O)C(OC(C)=O)C(OC(C)=O)C3OC(C)=O)c(=O)c2C#N)cc1 (stereo not given) :: inactive
CC[C@@]1(O)C(=O)OCc2c1cc1n(c2=O)Cc2c-1nc1ccccc1c2/C=N\NC(=O)C(N)CO (stereo not given in full) :: active
COc1cc2oc3cc(=O)cc4oc(-c5ccccc5)cc(c2c2c1CCC(c1ccccc1)O2)c43 (stereo not given) :: inactive

Task: Any idea what this test logged for `O=c1[nH]c(-c2ccccc2)nc2c1sc1nc3ccccc3n12` ?
Result: inactive

Task: // query: `COc1ccc(NC(=S)N/N=C2\C(=O)Nc3ccccc32)cc1`
Result: inactive

Task: // query: CN(C)/N=N/c1nc2c(c(=O)n(C)c(=O)n2C)n1CC(O)CO (stereo not given)
Result: inactive

Task: // query: `Cc1cc(C)c(S(=O)(=O)N(CCCN)OCCCN)c(C)c1`
Result: inactive

###

So I've got a bunch of molecules here, and I need their GI50 values.
Test system: SF-295
experiment.notes: NCI tumour cell line growth inhibition, 48 h
The source made the active and inactive calls. Cut-off read from the data, not from the text of the source: active = GI50 up to about 1.1 µM and inactive = higher.

Example entries begin here.
CC(N)C(C)c1ccccc1 (stereo not drawn) :: > 100 µM (inactive)
FC(F)(F)c1nc2nc(Cl)c(Cl)nc2n1CCCN1CCOCC1 :: > 100 µM (inactive)
COc1cc2c(cc1OC)C1C[C@]3(CCN1CC2)C(=O)N(c1ccccc1)C(=O)N3C(C)=O (stereo partly drawn) :: > 200 µM (inactive)
N#CCc1nc(-c2cc3c(ccc4ccccc43)oc2=O)cs1 :: 26.7 µM (inactive)
CCOC(=O)C1CSCCSC1 :: > 100 µM (inactive)

Hi, could you look up GI50 for each item in my list?
1. COc1cc(C)c(O)c(C(=O)O)c1
2. COc1ccc(Cn2nc(OCc3ccccn3)c3cc([N+](=O)[O-])ccc32)cc1
3. Cc1cccc2c(=O)c3c(O)cc4c(c3n(C)c12)C=CC(C)(C)O4
4. O=C1C(=O)N(c2ccc(Cl)cc2Cl)C(=O)C(=O)C1c1nc2ccccc2o1

Result:
["> 100 µM (inactive)", "50.9 µM (inactive)", "25.1 µM (inactive)", "> 100 µM (inactive)"]

Hi, could you look up GI50 for each item in my list?
1. O=C(Cn1ccnc1[N+](=O)[O-])NCCO
2. CCCCCCCCCCCCCC/C(C(=O)OC)=C(/O)C(=O)OCC
3. CC1(C)C(c2ccccc2)=NN(O)c2ccccc21
4. Nc1ccn(C2CCC(CO)O2)c(=S)n1 (stereo not drawn)
5. CN(C)CCCCN1c2ccccc2Sc2ccc(C(=O)c3ccccc3)cc21
6. CC(C)(C)C1=C(Br)C(C(C)(C)C)OP1(=O)O (stereo not drawn)
7. CSc1ccc(/C=C2\N=C(c3ccccc3)N(/N=C3\C(=O)Nc4ccccc43)C2=O)cc1

Result:
1. > 100 µM (inactive)
2. 20.6 µM (inactive)
3. > 100 µM (inactive)
4. > 100 µM (inactive)
5. 2.15 µM (inactive)
6. > 100 µM (inactive)
7. > 100 µM (inactive)

Hi, could you look up GI50 for each item in my list?
1. Clc1ccc(C[P+](c2ccccc2)(c2ccccc2)c2ccccc2)cc1Cl
2. CCCCCCCCCCNC(=S)OC
3. O=C(NCCCCNCCCNC(=O)c1ccccc1)c1ccccc1
4. COc1ccc(-c2cc(-c3ccc(Nc4ccnc5cc(C(F)(F)F)ccc45)cc3)[nH]c(=O)c2C#N)cc1
5. CC1(C)[C@H]2CC[C@@]13C(=O)N1C(=O)O[C@@H]([C@H]1Cl)C(Cl)(COCc1ccccc1)C(=O)OCCO[C@H]3C2 (stereo partly drawn)
6. CC(C)c1cccc(=O)c(O)c1
7. CC[C@@]1(O)C(=O)OCc2c1cc1n(c2=O)Cc2c-1nc1ccccc1c2/C=N\NC(=O)C(N)CO (stereo partly drawn)

Result:
["10.3 µM (inactive)", "55.5 µM (inactive)", "> 100 µM (inactive)", "> 32.7 µM (inactive)", "51.1 µM (inactive)", "6.52 µM (inactive)", "0.505 µM (active)"]

###

Tested on: DMS-273
experiment.notes: NCI tumour cell line growth inhibition, 48 h
The source made the active and inactive calls. Rule as the data show it: active = GI50 up to about 1.1 µM and inactive = higher.
Your reply should match one of these outcome classes. active, inactive

CC[N+]1(C)CCC(O)(c2ccc(OC)cc2)C(C(=O)c2ccc(OC)cc2)C1 (stereo unspecified) :: inactive
CC1=C(C(=O)NCc2ccccc2)C(c2ccc(C3C(C(=O)NCc4ccccc4)=C(C)NC(C)=C3C(=O)NCc3ccccc3)cc2)C(C(=O)NCc2ccccc2)=C(C)N1 :: inactive
CCCCc1c2c(nc3c1CCCC3=O)C(=O)CCC2 :: inactive
O=C1C(=Cc2ccc([N+](=O)[O-])o2)C(=O)N(CCc2ccccc2)S(=O)(=O)N1CCc1ccccc1 :: inactive

Task: Any idea what this test logged for Cc1ccc(C)c(N2C(=O)C(=O)C(c3nc4ccccc4o3)/C(=N\NC(=O)c3ccccc3O)C2=O)c1 (stereo unspecified) ?
Result: inactive

Task: // query: CC(=O)OC(CCC1(C)OC1COc1ccc(CCNC(=O)c2ccccc2)cc1)C(C)(C)OC(C)=O (stereo unspecified)
Result: inactive

Task: // query: `N#C/C(=C\c1ccc(CP(=O)(O)O)cc1)C(N)=O`
Result: inactive

Task: // query: `CSc1ccc(-c2cn3ccsc3n2)c(O)c1`
Result: inactive

Task: // query: `CC(=O)OCc1cc(=O)n(C)c2c3c4c(cc12)c(C)cc(=O)n4CO3`
Result: active

###

So I've got a bunch of molecules here, and I need their GI50 values.
Tested on: M19-MEL
experiment.notes: NCI tumour cell line growth inhibition, 48 h
Calls of active or inactive are those of the source. Rule as the data show it: active = GI50 up to about 1.1 µM and inactive = higher.

Example entries begin here.
CC[N+](CC)(CC)Cc1cn(S(=O)(=O)c2ccccc2)c2ccccc12 :: > 100 µM (inactive)
CC(C)c1cccc(=O)c(O)c1 :: 13.3 µM (inactive)
Cc1cc2nc3c(=O)n(C)c(=O)nc-3n(-c3ccc(Cl)cc3)c2cc1C :: 2.32 µM (inactive)
O=C1C(=O)N(c2ccc(Cl)cc2Cl)C(=O)C(=O)C1c1nc2ccccc2o1 :: > 100 µM (inactive)
CC1=NN(c2ccccc2)C(=O)C1/N=N/c1ccc(Br)c(C)c1 (centres undefined) :: > 100 µM (inactive)

Hi, could you look up GI50 for each item in my list?
1. CCCCCCCCCCCCCC/C(C(=O)OC)=C(/O)C(=O)OCC
2. CN1C(=O)C(=O)c2cc3c(c4c2c1cc1ccccc14)OCO3
3. CC(=O)c1cc([N+](=O)[O-])ccc1OCC(=O)O
4. C/C(=N/O)C1CC=C(S(=O)(=O)c2ccccc2)C1 (centres undefined)

Result:
54.8 µM (inactive)
28.4 µM (inactive)
> 100 µM (inactive)
> 100 µM (inactive)

###

Tested on: MDA-MB-231
experiment.notes: NCI tumour cell line growth inhibition, 48 h
Calls of active or inactive are those of the source. Rule as the data show it: active = GI50 up to about 1.1 µM and inactive = higher.
So I've got a bunch of molecules here, and I need their GI50 values.

NNC(=O)Cn1ccnn1 :: > 100 µM (inactive)
O=[N+]([O-])c1ccc2nc(=S)[nH]n2c1 :: > 100 µM (inactive)
c1ccc2c3nnc(c2c1)SCCCSc1nnc(c2ccccc12)SCCCS3 :: 17.2 µM (inactive)

Hi, could you look up GI50 for each item in my list?
1. COc1ccc(OC)c2c1ccc1c(C)c3ccccc3c(C)c12
2. C[C@@H](C[C@@H](O)[C@H](O)C(C)(C)O)[C@H]1CC=C2[C@]3(C)[C@H](O)C[C@H]4C(C)(C)[C@H](O)CC[C@]4(C)[C@H]3CC[C@@]21C
3. Nc1nc2c(ncn2Cc2ccccc2CO)c(=O)[nH]1

Result:
["16 µM (inactive)", "13.8 µM (inactive)", "> 100 µM (inactive)"]

Hi, could you look up GI50 for each item in my list?
1. COc1cc2c(cc1OC)C1C[C@]3(CCN1CC2)C(=O)N(c1ccccc1)C(=O)N3C(C)=O (stereo not given in full)
2. N#CC(/N=N/c1ccc(Cl)cc1)c1nc2ccccc2o1 (stereo not given)
3. O=[N+]([O-])c1ccc(C(c2c[nH]c3ccccc23)c2c[nH]c3ccccc23)cc1
4. FC(F)(F)c1nc2nc(Cl)c(Cl)nc2n1CCCN1CCOCC1
5. CCC(C#N)NC(=O)NC(C#N)CC (stereo not given)
6. COc1cc(NS(C)(=O)=O)ccc1NCc1c[nH]c2ccc3nc(C)ccc3c12
7. CCOC(=O)C(=Cc1ccccc1Br)C(=O)OCC

Result:
["> 200 µM (inactive)", "37 µM (inactive)", "12.4 µM (inactive)", "78.2 µM (inactive)", "> 100 µM (inactive)", "61.1 µM (inactive)", "6.41 µM (inactive)"]
